subject_of_test: tetanus neurotoxin (TeNT), authentic tetanus holotoxin (Clostridium tetani, UniProt P04958 2-1315)
Sequence (P04958 2-457 limits assumed, chain 1 of 2): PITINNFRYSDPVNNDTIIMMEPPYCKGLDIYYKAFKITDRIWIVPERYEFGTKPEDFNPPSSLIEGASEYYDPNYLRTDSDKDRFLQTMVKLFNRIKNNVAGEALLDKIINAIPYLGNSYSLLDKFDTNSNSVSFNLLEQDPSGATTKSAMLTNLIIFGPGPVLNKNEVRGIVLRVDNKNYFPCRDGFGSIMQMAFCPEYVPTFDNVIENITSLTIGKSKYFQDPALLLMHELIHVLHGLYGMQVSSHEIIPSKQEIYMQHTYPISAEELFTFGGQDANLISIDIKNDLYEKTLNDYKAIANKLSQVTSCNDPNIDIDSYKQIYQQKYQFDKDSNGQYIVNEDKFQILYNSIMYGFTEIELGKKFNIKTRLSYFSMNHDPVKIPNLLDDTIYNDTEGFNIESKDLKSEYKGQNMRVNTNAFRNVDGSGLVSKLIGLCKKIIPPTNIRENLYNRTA
Sequence (P04958 458-1315 limits assumed, chain 2 of 2): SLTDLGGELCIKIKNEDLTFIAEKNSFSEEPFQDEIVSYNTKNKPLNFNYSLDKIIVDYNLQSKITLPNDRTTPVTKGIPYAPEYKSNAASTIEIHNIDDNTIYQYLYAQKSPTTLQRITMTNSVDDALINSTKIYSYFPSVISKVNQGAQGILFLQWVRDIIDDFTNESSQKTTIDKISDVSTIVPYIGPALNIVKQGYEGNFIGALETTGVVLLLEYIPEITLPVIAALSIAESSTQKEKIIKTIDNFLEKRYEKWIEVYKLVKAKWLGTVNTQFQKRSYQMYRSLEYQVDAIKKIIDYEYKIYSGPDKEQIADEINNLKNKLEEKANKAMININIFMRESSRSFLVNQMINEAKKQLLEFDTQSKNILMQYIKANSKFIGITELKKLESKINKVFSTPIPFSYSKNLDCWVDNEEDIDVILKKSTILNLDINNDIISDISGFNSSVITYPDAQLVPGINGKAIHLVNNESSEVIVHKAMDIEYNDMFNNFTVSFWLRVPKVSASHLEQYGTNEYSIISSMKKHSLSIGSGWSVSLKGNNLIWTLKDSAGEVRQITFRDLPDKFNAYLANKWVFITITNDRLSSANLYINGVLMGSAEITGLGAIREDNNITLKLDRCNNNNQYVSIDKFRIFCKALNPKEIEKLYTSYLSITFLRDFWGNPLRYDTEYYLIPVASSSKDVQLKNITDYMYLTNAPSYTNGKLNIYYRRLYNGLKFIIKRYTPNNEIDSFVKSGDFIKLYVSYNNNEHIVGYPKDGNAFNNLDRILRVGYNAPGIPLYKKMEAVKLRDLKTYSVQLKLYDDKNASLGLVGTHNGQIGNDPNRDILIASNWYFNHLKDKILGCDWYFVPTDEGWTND
protocol_notes: ELISA, directly coated TeNT, biotinylated binder
endpoint_name: EC resulting in A450 0.4 (ng/mL)
Please give a number only; it is taken to be in ng/mL.

These solved cases illustrate the format of a correct answer.
{"columns": ["binder", "EC resulting in A450 0.4 (ng/mL)"],
 "data": [
  ["SVT16L (VHH) VHH: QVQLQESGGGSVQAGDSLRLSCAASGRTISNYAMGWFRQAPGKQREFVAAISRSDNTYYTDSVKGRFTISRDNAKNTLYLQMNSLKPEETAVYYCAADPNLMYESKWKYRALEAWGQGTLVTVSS", 0.52],
  ["SVT25L (VHH) VHH: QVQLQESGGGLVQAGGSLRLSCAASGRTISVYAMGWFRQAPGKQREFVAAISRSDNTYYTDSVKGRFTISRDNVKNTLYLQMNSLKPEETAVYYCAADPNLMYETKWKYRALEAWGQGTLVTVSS", 43],
  ["SVT20L (VHH) VHH: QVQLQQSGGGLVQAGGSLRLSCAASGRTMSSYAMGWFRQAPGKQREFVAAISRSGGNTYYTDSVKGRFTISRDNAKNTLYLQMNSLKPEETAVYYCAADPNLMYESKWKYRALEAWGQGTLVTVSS", 2.1]
]}

# context switch: different binder, same EC resulting in A450 0.4
Lookup: Sample SVT06L (VHH) VHH: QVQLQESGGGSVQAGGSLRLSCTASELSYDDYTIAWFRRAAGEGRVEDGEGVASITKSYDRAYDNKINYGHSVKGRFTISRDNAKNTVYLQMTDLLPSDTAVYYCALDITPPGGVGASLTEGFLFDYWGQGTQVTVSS — what was its EC resulting in A450 0.4?
Found: 0.39
